Recorded IC50 for the following compounds
- SYSTEM_TESTED: Purified Lck (Upstate) (Homo sapiens, UniProt P06239)
- Sequence (P06239 whole entry, species assumed): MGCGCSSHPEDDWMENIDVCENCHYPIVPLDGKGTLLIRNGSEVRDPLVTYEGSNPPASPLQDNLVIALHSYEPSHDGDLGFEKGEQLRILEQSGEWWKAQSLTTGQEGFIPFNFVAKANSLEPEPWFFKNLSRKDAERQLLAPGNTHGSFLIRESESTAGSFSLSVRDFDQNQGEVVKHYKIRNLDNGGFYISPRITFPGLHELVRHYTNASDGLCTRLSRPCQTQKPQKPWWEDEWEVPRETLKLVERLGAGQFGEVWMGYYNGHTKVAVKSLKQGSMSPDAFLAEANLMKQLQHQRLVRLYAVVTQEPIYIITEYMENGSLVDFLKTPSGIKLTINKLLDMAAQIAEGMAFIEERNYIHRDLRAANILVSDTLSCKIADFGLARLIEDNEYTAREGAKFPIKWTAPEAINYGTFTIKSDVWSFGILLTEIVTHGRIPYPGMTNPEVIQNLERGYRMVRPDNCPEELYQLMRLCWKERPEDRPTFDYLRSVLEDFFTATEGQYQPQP
PROPERTY_NAME: IC50 (nM)

{"RECORD_SMILES": "c1cc(Nc2ccc3ncc(-c4ccncc4)n3n2)ccn1", "ASSAY_VALUE": 410}
{"RECORD_SMILES": "c1cc(-c2cnc3ccc(NC45CC6CC(CC(C6)C4)C5)nn23)ccn1", "ASSAY_VALUE": 320}
{"RECORD_SMILES": "c1ccc(CNc2ccc3ncc(-c4ccncc4)n3n2)cc1", "ASSAY_VALUE": 310}

Ref: patent US20100216798A1
